- Target System: Heat shock protein HSP 90-alpha (Homo sapiens, UniProt P07900)
- Assay type: functional, organism-based
Activity calls are given as the source filed them.
Metric Name: AC50

-- ask Look up AC50 of Cc1ccc2c(c1C)-c1c(ccc(C)c1C)C(=O)C2=O and report it.
-- reply 2.79 µM (active)

-- ask Look up AC50 of O=C(Nc1cc(Cl)ccc1-n1cncn1)c1ccc([N+](=O)[O-])s1 and report it.
-- reply 3.72 µM (active)

-- ask Look up AC50 of CSc1nnc2c3cc(F)ccc3n(C)c2n1 and report it.
-- reply 5.56 µM (active)

-- ask Look up AC50 of Cc1ccc2nc(-c3ccc(NS(=O)(=O)c4ccc(F)cc4)cc3)sc2c1 and report it.
-- reply 4.57 µM (active)

-- ask Look up AC50 of COc1ccc(-c2nn(-c3ccccc3)cc2C(=O)N2CCN(S(=O)(=O)c3cccc(F)c3)CC2)cc1 and report it.
-- reply 2.04 µM (active)

----------
Provide the recorded EC50 for the entries that follow.
- Protocol Notes: Luminescence Cell-Based Dose Confirmation HTS to Identify Inhibitors of Platelet Dense Granule Release. [Related pubchem assays: 1663 (Primary HTS), 1678 (Summary of Project)]
- Format: functional
Activity calls are given as the source filed them.

-- ask Look up EC50 of C=CCn1c(S)nnc1-c1cc(Cl)ccc1OC and report it.
-- reply > 112 µM (not active)

-- ask Look up EC50 of CCOC(=O)C1CCN(C(c2ccccn2)c2c(C)[nH]c3ccccc23)CC1 (centres undefined) and report it.
-- reply 16.5 µM (active)

-- ask Look up EC50 of COc1ccccc1NC(=O)c1cc2n(n1)C(C(F)(F)F)CC(c1ccc3c(c1)OCO3)N2 (centres undefined) and report it.
-- reply > 112 µM (not active)

-- ask Look up EC50 of COc1ccc(NC(=O)c2cnn(-c3ccccc3)c2C)cc1 and report it.
-- reply 6.03 µM (active)

----------
- Target System: Trace amine-associated receptor 1 (Homo sapiens)
- Sequence (Q96RJ0 whole entry): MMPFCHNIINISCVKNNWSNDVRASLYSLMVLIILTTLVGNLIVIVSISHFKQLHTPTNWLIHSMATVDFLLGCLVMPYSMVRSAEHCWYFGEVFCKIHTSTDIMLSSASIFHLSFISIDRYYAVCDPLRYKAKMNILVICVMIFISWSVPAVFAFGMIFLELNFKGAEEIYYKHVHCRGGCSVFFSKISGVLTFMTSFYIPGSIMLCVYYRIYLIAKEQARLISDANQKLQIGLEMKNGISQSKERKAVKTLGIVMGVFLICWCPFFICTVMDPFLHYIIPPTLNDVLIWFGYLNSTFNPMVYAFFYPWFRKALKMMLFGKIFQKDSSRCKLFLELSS
- Protocol Notes: Fluorescence-based cell-based high throughput dose response assay to identify agonists of the human trace amine associated receptor 1 (TAAR1).
- Format: functional
Active and inactive are the calls of the source.
Metric Name: EC50

-- ask Report the value of EC50 obtained on Trace amine-associated receptor 1 (Homo sapiens) for Cc1cc(C(=O)CN2C(=O)C(=O)N(C3CCCC3)C2=O)c(C)n1CCc1ccccc1 .
-- reply 1890 nM (active)

-- ask Report the value of EC50 obtained on Trace amine-associated receptor 1 (Homo sapiens) for CN1C(=O)NC(c2ccccc2)C2=C1CN(CCc1ccccc1)C2=O (stereo unspecified) .
-- reply 1030 nM (active)

-- ask Report the value of EC50 obtained on Trace amine-associated receptor 1 (Homo sapiens) for O=C(N/N=C/c1ccc(O)c(O)c1)N/N=C/c1ccc(O)c(O)c1 .
-- reply 647 nM (active)

-- ask Report the value of EC50 obtained on Trace amine-associated receptor 1 (Homo sapiens) for COc1cccc(Nc2nc(C(N)COCc3ccccc3)cs2)n1 (stereo unspecified) .
-- reply 2550 nM (active)

-- ask Report the value of EC50 obtained on Trace amine-associated receptor 1 (Homo sapiens) for c1ccc(CCNc2ncnc3[nH]cnc23)cc1 .
-- reply 3940 nM (active)

-- ask Report the value of EC50 obtained on Trace amine-associated receptor 1 (Homo sapiens) for CNCCc1ccccn1 .
-- reply 1240 nM (active)

----------
- Target System: 5-hydroxytryptamine receptor 2A (Mus musculus, UniProt P35363);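 further: CHO-K1 cells with tagged receptor and beta-arrestin; agonist potency measured as compound-induced activation of the receptor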
- Sequence (P35363 whole entry): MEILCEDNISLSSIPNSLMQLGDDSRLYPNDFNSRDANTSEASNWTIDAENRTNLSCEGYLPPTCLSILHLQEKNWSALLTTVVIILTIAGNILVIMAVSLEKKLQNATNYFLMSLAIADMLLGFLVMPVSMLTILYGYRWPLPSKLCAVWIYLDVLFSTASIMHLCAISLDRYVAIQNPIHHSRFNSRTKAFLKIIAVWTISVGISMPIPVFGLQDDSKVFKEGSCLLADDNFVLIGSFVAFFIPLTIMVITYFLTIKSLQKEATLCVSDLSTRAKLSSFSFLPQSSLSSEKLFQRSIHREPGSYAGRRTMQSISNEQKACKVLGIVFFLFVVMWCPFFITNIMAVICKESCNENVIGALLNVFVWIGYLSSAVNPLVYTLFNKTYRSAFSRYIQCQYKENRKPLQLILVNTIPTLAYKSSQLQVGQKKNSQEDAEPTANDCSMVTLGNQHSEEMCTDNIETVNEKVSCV
- Format: functional, cell-based
The source made the active and inactive calls.
Thanks in advance; please answer with one of these: active, inactive

-- ask Entry O=C(c1ccco1)N1CCN(Cc2ccccc2F)CC1 : call = ?
-- reply active

-- ask Entry O=C1C2CCCN2C(=O)N1CCCCN1CCN(c2ccccc2)CC1 (stereo not given) : call = ?
-- reply active

-- ask Entry COc1ccc(CN2CCN(C(=O)c3ccco3)CC2)cc1 : call = ?
-- reply active

-- ask Entry N#Cc1c(Br)n(C2OC(CO)C(O)C2O)c2ncnc(N)c12 (stereo not given) : call = ?
-- reply active

-- ask Entry Cc1cccc(OCC(O)CN2CCN(c3ccccn3)CC2)c1C (stereo not given) : call = ?
-- reply inactive

----------
- Target System: UniProt O96028
- Type: biochemical
Calls of active or inactive are those of the source.
Thanks in advance; please answer with one of these: active, inactive

-- ask Entry O=C1C(=O)c2cccnc2-c2ncccc21 : call = ?
-- reply active

-- ask Entry CCN(CC)CCCN(Cc1cc2cc3c(cc2nc1O)OCCO3)C(=O)Nc1ccccc1 : call = ?
-- reply inactive

-- ask Entry Cc1ccc2c(c1C)-c1c(ccc(C)c1C)C(=O)C2=O : call = ?
-- reply active

-- ask Entry O=C(COC(=O)c1ccccc1)Nc1ncc([N+](=O)[O-])s1 : call = ?
-- reply active

-- ask Entry O=C1C=C(N2CCCCC2)c2ccccc2C1=O : call = ?
-- reply active

-- ask Entry O=c1c2ccccc2nc(COc2ccccc2)n1/N=C/c1ccc(O)c(O)c1 : call = ?
-- reply active

----------
- Target System: Voltage-gated N-type calcium channel alpha-1B subunit/Amyloid beta A4 precursor protein-binding family A member 1 (Homo sapiens, UniProt Q00975+Q02410)
- Sequence (Q00975 whole entry): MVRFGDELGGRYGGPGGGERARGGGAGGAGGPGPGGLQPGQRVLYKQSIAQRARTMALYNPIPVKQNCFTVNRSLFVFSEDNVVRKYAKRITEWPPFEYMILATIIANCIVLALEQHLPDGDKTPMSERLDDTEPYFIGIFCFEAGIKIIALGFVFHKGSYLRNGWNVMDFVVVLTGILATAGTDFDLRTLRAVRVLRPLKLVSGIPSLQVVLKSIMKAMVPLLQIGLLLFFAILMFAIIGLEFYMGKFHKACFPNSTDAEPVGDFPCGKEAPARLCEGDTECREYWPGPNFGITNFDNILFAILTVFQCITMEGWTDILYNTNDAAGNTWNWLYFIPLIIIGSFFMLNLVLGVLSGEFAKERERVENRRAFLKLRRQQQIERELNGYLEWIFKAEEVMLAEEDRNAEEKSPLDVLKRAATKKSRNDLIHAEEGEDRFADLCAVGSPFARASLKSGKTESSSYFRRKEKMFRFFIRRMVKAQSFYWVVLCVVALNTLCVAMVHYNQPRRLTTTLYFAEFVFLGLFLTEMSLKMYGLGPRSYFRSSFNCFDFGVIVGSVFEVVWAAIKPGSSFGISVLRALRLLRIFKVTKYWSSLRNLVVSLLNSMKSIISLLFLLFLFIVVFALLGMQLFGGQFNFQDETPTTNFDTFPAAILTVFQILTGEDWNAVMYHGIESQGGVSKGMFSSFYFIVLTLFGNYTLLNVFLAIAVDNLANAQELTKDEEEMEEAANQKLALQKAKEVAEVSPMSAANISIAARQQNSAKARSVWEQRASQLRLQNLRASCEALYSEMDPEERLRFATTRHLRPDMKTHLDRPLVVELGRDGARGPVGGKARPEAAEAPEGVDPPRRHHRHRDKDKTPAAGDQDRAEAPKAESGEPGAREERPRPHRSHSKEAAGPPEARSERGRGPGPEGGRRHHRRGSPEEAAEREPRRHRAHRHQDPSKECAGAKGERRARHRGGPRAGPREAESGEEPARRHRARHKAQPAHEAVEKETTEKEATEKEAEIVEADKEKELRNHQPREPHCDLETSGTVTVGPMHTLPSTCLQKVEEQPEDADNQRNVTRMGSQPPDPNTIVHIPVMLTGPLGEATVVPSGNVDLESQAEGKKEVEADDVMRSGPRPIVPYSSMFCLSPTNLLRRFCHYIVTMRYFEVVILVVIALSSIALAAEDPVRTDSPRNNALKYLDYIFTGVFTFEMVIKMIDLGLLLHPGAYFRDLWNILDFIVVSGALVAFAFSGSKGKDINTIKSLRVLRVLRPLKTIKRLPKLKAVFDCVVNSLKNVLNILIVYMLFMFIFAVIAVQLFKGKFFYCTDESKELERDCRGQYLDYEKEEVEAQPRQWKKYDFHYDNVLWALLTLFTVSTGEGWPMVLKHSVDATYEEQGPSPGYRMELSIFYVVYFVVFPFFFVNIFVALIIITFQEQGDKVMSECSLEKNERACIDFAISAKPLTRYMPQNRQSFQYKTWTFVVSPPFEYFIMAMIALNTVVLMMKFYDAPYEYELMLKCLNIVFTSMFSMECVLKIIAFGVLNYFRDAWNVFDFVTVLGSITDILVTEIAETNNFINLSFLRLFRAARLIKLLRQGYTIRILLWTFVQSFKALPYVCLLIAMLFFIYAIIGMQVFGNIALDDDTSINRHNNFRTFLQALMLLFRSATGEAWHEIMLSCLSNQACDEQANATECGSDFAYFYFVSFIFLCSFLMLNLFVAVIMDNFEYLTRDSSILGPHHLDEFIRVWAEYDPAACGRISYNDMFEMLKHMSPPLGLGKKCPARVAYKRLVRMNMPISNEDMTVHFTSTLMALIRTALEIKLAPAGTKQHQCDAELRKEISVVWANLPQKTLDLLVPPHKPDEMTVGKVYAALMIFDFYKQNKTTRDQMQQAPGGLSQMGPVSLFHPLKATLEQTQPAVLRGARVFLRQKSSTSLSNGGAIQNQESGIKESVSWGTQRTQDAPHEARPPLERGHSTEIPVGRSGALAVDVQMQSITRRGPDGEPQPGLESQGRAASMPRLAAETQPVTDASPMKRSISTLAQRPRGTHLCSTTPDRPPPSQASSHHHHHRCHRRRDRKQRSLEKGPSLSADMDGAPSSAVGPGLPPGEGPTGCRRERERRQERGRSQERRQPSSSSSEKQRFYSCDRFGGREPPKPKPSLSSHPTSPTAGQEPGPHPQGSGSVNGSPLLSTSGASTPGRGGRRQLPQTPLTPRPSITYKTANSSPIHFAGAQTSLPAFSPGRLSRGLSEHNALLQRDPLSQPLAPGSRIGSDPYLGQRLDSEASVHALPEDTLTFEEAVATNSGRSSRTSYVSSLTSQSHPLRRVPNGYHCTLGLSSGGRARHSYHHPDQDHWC
- Sequence (Q02410 whole entry): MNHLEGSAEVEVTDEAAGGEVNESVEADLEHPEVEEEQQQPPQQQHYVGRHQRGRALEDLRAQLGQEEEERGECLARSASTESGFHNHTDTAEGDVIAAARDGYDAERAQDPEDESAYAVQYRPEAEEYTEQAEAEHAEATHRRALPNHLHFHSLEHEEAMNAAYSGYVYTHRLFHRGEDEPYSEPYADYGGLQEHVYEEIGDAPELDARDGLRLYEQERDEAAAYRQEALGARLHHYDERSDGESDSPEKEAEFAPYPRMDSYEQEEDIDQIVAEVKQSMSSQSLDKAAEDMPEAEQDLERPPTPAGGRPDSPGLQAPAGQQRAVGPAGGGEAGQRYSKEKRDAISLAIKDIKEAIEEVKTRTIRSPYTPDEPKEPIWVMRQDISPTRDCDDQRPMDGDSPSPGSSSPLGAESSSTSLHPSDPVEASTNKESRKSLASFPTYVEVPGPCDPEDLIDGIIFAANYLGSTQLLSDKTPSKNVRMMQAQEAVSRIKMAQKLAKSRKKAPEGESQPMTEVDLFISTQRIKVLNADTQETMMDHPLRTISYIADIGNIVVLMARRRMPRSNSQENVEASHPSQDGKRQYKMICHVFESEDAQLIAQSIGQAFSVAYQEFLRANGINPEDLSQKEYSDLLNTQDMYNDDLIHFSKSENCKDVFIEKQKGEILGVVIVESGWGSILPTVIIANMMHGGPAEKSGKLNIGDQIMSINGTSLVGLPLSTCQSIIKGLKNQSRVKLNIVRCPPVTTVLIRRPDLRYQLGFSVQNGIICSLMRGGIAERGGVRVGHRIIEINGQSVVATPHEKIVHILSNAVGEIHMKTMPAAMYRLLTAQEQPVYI
- Format: protein assay
Active and inactive are the calls of the source.
Metric Name: IC50

-- ask Look up IC50 of CCOC(=O)c1ccc(N2C(=O)C=CC2=O)cc1 and report it.
-- reply 6.05 µM (active)

-- ask Look up IC50 of Cc1nc2sc(C(=O)OC(C)C)c(N)c2c(C)c1C and report it.
-- reply 4.25 µM (active)

-- ask Look up IC50 of Oc1cccc2cc3cccc(O)c3c(O)c12 and report it.
-- reply 19.9 µM (active)

-- ask Look up IC50 of CCOC(=O)c1sc2nc(-c3ccco3)c3c(c2c1N)CC(C)(C)OC3 and report it.
-- reply 9.58 µM (active)

-- ask Look up IC50 of CC1=C(C(=O)O)N2C(=O)C(NC(=O)c3ccccc3Cl)C2SC1 (stereo unspecified) and report it.
-- reply 0.749 µM (active)

-- ask Look up IC50 of O=C(c1ccc2nc(-c3ccco3)c(-c3ccco3)nc2c1)N1CCC2(CC1)OCCO2 and report it.
-- reply 2.45 µM (active)

----------
- Target System: Corticotropin-releasing factor receptor 2/Corticotropin-releasing factor-binding protein (Homo sapiens, UniProt P24387+Q13324)
- Sequence (Q13324 whole entry): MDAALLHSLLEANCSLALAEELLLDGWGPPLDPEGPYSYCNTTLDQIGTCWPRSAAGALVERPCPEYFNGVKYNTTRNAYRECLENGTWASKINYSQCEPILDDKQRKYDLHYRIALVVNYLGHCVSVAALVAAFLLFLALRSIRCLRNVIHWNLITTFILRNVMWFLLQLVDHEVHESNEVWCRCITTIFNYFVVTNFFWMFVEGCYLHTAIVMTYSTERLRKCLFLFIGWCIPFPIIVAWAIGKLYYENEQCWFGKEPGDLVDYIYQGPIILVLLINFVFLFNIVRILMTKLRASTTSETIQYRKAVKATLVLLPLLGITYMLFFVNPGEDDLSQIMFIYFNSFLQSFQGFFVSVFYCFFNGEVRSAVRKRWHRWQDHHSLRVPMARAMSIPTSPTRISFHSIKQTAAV
- Sequence (P24387 whole entry): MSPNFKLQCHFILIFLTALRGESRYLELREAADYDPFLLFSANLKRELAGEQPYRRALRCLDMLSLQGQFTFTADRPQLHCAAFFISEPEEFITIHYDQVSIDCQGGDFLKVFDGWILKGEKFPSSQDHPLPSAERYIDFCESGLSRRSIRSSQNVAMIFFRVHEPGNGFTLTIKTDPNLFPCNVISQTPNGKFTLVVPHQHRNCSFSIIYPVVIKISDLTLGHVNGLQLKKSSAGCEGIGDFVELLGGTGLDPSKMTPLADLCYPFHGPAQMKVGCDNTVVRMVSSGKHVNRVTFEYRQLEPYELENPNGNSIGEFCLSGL
- Protocol Notes: activators of CRF receptor 2 with binding protein – uHTS hits, confirmation (AID 602473)
- Format: functional
- Condition Summary: read-out: EC50_Mean
Activity calls are given as the source filed them.
Thanks in advance; please answer with one of these: y for active, n for inactive

-- ask Entry COc1ccccc1NC(=S)NC(=O)Cc1ccc(Cl)cc1 : call = ?
-- reply y

-- ask Entry C=CCNC(S)=NNC(=O)c1ccc(OCC)cc1 : call = ?
-- reply n

-- ask Entry CCCCCCc1cc2cc(C(=O)Nc3cccc(OC)c3)c(=O)oc2cc1O : call = ?
-- reply n

-- ask Entry COC(=O)CNC(=O)COC(=O)C(Cc1ccccc1)NC(=O)c1ccco1 (configuration not stated) : call = ?
-- reply n

-- ask Entry Cc1ccc(-n2c(Cl)c(Cl)[nH]c(=O)c2=O)cc1 : call = ?
-- reply n

-- ask Entry CC1CCCN(CCCNC(=O)CN2C(=O)CSc3ccc(S(=O)(=O)N4CCOCC4)cc32)C1 (configuration not stated) : call = ?
-- reply n

-- ask Entry C/C(=N\OC(=O)c1ccc(OC(C)C)cc1)c1ccc(C)c(C)c1 : call = ?
-- reply n

-- ask Entry CN1C(=O)NC(c2ccccc2)C2=C1CN(CCc1ccccc1)C2=O (configuration not stated) : call = ?
-- reply n

-- ask Entry CCc1nnc(N=C(S)Nc2ccccc2)s1 : call = ?
-- reply n

-- ask Entry O=c1c(/C=C(\O)c2ccc(F)cc2)nc2ccccc2n1-c1ccccc1 : call = ?
-- reply y

-- ask Entry COc1cc(Cl)c(C)cc1NC(=O)CSc1ccc(C)cc1 : call = ?
-- reply n

-- ask Entry CC(NC(=O)COC(=O)C1(C)CC1(Cl)Cl)c1ccccc1 (configuration not stated) : call = ?
-- reply n

----------
- Target System: Streptokinase A (Streptococcus pyogenes serotype M1)
- Sequence (P10520 whole entry): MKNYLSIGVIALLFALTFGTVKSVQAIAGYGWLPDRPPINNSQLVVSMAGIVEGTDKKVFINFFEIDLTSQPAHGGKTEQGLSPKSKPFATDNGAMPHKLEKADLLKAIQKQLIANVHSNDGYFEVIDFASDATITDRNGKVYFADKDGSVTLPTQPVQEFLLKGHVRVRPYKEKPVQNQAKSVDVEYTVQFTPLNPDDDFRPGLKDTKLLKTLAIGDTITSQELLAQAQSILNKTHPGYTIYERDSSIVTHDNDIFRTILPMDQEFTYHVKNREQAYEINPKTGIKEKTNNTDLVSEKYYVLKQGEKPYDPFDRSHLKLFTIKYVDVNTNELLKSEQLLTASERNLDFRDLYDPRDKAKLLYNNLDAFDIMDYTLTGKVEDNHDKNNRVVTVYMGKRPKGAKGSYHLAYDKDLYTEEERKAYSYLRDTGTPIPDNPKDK
- Protocol Notes: viability-normalized secreted streptokinase activity reduction – plasminogen activation absorbance, OD405, dose response (AID 1914);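 further: secreted streptokinase activity via plasminogen activation per viability signal from cell pellet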
- Assay type: functional, Streptococcus pyogenes M1 GAS
Active and inactive are the calls of the source.
Provide the recorded EC50 for the entries that follow.

-- ask Look up EC50 of O=C1C=C(N2CCCCC2)c2ccccc2C1=O and report it.
-- reply 17.8 µM (active)

-- ask Look up EC50 of Cc1ccc2nc(-c3ccc(NS(=O)(=O)c4ccc(F)cc4)cc3)sc2c1 and report it.
-- reply > 150 µM (not active)

-- ask Look up EC50 of COCC1CCN(C(=O)c2ccc3oc(Cc4ccccc4)nc3c2)C1 (stereo not drawn) and report it.
-- reply > 150 µM (not active)

-- ask Look up EC50 of O=C(CSc1nc(O)c2cnn(-c3ccccc3)c2n1)N1N=C(c2cccs2)CC1c1ccc(F)cc1 (stereo not drawn) and report it.
-- reply > 150 µM (not active)

-- ask Look up EC50 of COc1ccc(-c2csc(NC(=O)c3ccc(C(C)(C)C)cc3)c2C(=O)O)cc1 and report it.
-- reply 3.12 µM (inconclusive)

-- ask Look up EC50 of CCc1ccc(CN(C)Cc2nc(-c3cccc(Cl)c3)no2)nc1 and report it.
-- reply > 150 µM (not active)

-- ask Look up EC50 of Cc1csc2c(N3CCN(C(=O)Nc4ccc(Cl)c(Cl)c4)CC3)ncnc12 and report it.
-- reply 14.8 µM (active)

-- ask Look up EC50 of O=C(Nc1ccc(OC(F)F)cc1)Nc1cccc(C(F)(F)F)c1 and report it.
-- reply > 150 µM (not active)

-- ask Look up EC50 of Cc1cccc(Nc2nc(N)nc(CN3CCN(c4ccccc4F)CC3)n2)c1 and report it.
-- reply > 150 µM (not active)

-- ask Look up EC50 of Cc1cccc(C)c1Oc1nc(-c2ccccc2)ncc1S(=O)(=O)c1ccccc1 and report it.
-- reply 3.99 µM (active)

-- ask Look up EC50 of Cc1cc(C)c(C2C3=C(Nc4c2c(C)nn4-c2ccccn2)c2ccccc2C3=O)c(C)c1 (stereo not drawn) and report it.
-- reply 22.2 µM (active)

-- ask Look up EC50 of O=C(Nc1nc2ccccc2n1Cc1ccccc1)c1ccco1 and report it.
-- reply > 150 µM (not active)

-- ask Look up EC50 of CC/C(=C(\c1ccccc1)c1ccc(OCCN(C)C)cc1)c1ccccc1 and report it.
-- reply > 150 µM (not active)

-- ask Look up EC50 of CC1CCN(c2nc3ccccc3nc2C(C#N)C(=O)NC2CCCCC2)CC1 (stereo not drawn) and report it.
-- reply 26.2 µM (active)

-- ask Look up EC50 of CC(C)(C)c1ccc(C(=O)N2CCN(C(=O)c3ccco3)CC2)cc1 and report it.
-- reply > 150 µM (not active)

-- ask Look up EC50 of COc1ccc(Oc2nc(-c3ccccn3)nc3ccccc23)cc1 and report it.
-- reply > 150 µM (not active)

-- ask Look up EC50 of CCOC(=O)/C(=N/Nc1ccccc1)c1csc(Nc2ccccc2)n1 and report it.
-- reply > 150 µM (not active)

-- ask Look up EC50 of CC(C)CN1C(=S)SC(C)(C)C1n1oc(=O)n(-c2ccc(Cl)cc2)c1=O (stereo not drawn) and report it.
-- reply 5.59 µM (active)

Data origin, for the record: ChEMBL document CHEMBL1201862
